# System: 889142-216-R-J1-PDC complex spheroid viability
# test name: Anticancer human tumor 889142-216-R-J1-PDC patient-derived bladder carcinoma cell line growth inhibition [POLQ]
# run conditions: second compound 3.16 µM; first compound 0.0316 µM; stronger effect = lower value
satisfied if viability, T/C is below 90%. not satisfied if not; exact matches included in not satisfied.

# compound, study system, answer label
rows = [
    ("CCCS(=O)(=O)Nc1ccc(F)c(C(=O)c2c[nH]c3ncc(-c4ccc(Cl)cc4)cc23)c1F + Cc1cccc(N(C)C(=O)C2C(O)CCN2c2nc(C)cc(C(F)(F)F)c2C#N)c1", "889142-216-R-J1-PDC complex spheroid viability", "not satisfied"),
    ("CCc1cc2c(N3CCc4c(cc(Cn5ccnc5)cc4-c4cn(C)nc4C(F)(F)F)C3=O)ccnc2c(OC)n1 + Cc1cccc(N(C)C(=O)C2C(O)CCN2c2nc(C)cc(C(F)(F)F)c2C#N)c1", "889142-216-R-J1-PDC complex spheroid viability", "satisfied"),
    ("CCc1cc2c(N3CCc4c(cc(Cn5ccnc5)cc4-c4cn(C)nc4C(F)(F)F)C3=O)cc(C)nc2c(OC)n1 + Nc1ccc(C#CCN(C(=O)Cc2ncc(C(F)(F)F)cc2C(F)(F)F)c2ccc(F)cc2)nn1", "889142-216-R-J1-PDC complex spheroid viability", "not satisfied"),
    ("COc1cccc2c1C(=O)c1c(O)c3c(c(O)c1C2=O)CC(O)(C(=O)CO)CC3OC1CC(N)C(O)C(C)O1 (stereo not given) + COC1C(OC(N)=O)C(O)C(Oc2ccc3c(O)c(NC(=O)c4ccc(O)c(CC=C(C)C)c4)c(=O)oc3c2C)OC1(C)C", "889142-216-R-J1-PDC complex spheroid viability", "satisfied"),
]

---

# System: 889142-216-R-J1-PDC complex spheroid viability
# test name: Anticancer human tumor 889142-216-R-J1-PDC cell line growth inhibition [POLQ];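 further: spheroids exposed to compounds for seven days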;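 on viability, T/C: 100% = DMSO vehicle control viability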
# run conditions: second compound 3.16 µM; first compound 0.0316 µM; stronger effect = lower value
Category key, based on recorded viability, T/C: class 0: < 60%; class 1: ≥ 60% and < 90%; class 2: ≥ 90%

# compound, study system, answer label
rows = [
    ("COc1ccc([C@@H](O)c2cc(-c3ncnc4cc(N5CCOCC5)ccc34)c(F)cc2Cl)nn1 + Cc1cccc(N(C)C(=O)C2C(O)CCN2c2nc(C)cc(C(F)(F)F)c2C#N)c1", "889142-216-R-J1-PDC complex spheroid viability", "class 2"),
    ("CC1COCCN1c1cc(-c2ccnn2C)c2ccnc(-c3ccn[nH]3)c2n1 (stereo unspecified) + COC1C(OC(N)=O)C(O)C(Oc2ccc3c(O)c(NC(=O)c4ccc(O)c(CC=C(C)C)c4)c(=O)oc3c2C)OC1(C)C", "889142-216-R-J1-PDC complex spheroid viability", "class 1"),
    ("CCCS(=O)(=O)Nc1ccc(F)c(C(=O)c2c[nH]c3ncc(-c4ccc(Cl)cc4)cc23)c1F + COC1C(OC(N)=O)C(O)C(Oc2ccc3c(O)c(NC(=O)c4ccc(O)c(CC=C(C)C)c4)c(=O)oc3c2C)OC1(C)C", "889142-216-R-J1-PDC complex spheroid viability", "class 2"),
    ("COc1cccc(OCCCN)c1-c1cc(Nc2cnc(C#N)cn2)n[nH]1 + COC1C(OC(N)=O)C(O)C(Oc2ccc3c(O)c(NC(=O)c4ccc(O)c(CC=C(C)C)c4)c(=O)oc3c2C)OC1(C)C", "889142-216-R-J1-PDC complex spheroid viability", "class 0"),
    ("Nc1ccn(C2OC(CO)C(O)C2(F)F)c(=O)n1 (stereo unspecified) + Nc1ccc(C#CCN(C(=O)Cc2ncc(C(F)(F)F)cc2C(F)(F)F)c2ccc(F)cc2)nn1", "889142-216-R-J1-PDC complex spheroid viability", "class 0"),
    ("CCc1cc2c(N3CCc4c(cc(Cn5ccnc5)cc4-c4cn(C)nc4C(F)(F)F)C3=O)ccnc2c(OC)n1 + Nc1ccc(C#CCN(C(=O)Cc2ncc(C(F)(F)F)cc2C(F)(F)F)c2ccc(F)cc2)nn1", "889142-216-R-J1-PDC complex spheroid viability", "class 2"),
    ("COc1cc(C2c3cc4c(cc3C(OC3OC5COC(C)OC5C(O)C3O)C3COC(=O)C23)OCO4)cc(OC)c1O (stereo unspecified) + Nc1ccc(C#CCN(C(=O)Cc2ncc(C(F)(F)F)cc2C(F)(F)F)c2ccc(F)cc2)nn1", "889142-216-R-J1-PDC complex spheroid viability", "class 2"),
    ("CCc1cc2c(N3CCc4c(cc(Cn5ccnc5)cc4-c4cn(C)nc4C(F)(F)F)C3=O)ccnc2c(OC)n1 + COC1C(OC(N)=O)C(O)C(Oc2ccc3c(O)c(NC(=O)c4ccc(O)c(CC=C(C)C)c4)c(=O)oc3c2C)OC1(C)C", "889142-216-R-J1-PDC complex spheroid viability", "class 2"),
    ("Nc1ccn(C2OC(CO)C(O)C2(F)F)c(=O)n1 (stereo unspecified) + Cc1cccc(N(C)C(=O)C2C(O)CCN2c2nc(C)cc(C(F)(F)F)c2C#N)c1", "889142-216-R-J1-PDC complex spheroid viability", "class 0"),
    ("COc1ccc([C@@H](O)c2cc(-c3ncnc4cc(N5CCOCC5)ccc34)c(F)cc2Cl)nn1 + COC1C(OC(N)=O)C(O)C(Oc2ccc3c(O)c(NC(=O)c4ccc(O)c(CC=C(C)C)c4)c(=O)oc3c2C)OC1(C)C", "889142-216-R-J1-PDC complex spheroid viability", "class 1"),
    ("COc1cccc2c1C(=O)c1c(O)c3c(c(O)c1C2=O)CC(O)(C(=O)CO)CC3OC1CC(N)C(O)C(C)O1 (stereo unspecified) + Nc1ccc(C#CCN(C(=O)Cc2ncc(C(F)(F)F)cc2C(F)(F)F)c2ccc(F)cc2)nn1", "889142-216-R-J1-PDC complex spheroid viability", "class 1"),
    ("CC1COCCN1c1cc(C2(O)CC3CCC(C2)O3)c2cnn(-c3ccn[nH]3)c2n1 (stereo unspecified) + Nc1ccc(C#CCN(C(=O)Cc2ncc(C(F)(F)F)cc2C(F)(F)F)c2ccc(F)cc2)nn1", "889142-216-R-J1-PDC complex spheroid viability", "class 0"),
    ("CC[C@@]1(O)C(=O)OCc2c1cc1n(c2=O)Cc2cc3c(CN(C)C)c(O)ccc3nc2-1 + Nc1ccc(C#CCN(C(=O)Cc2ncc(C(F)(F)F)cc2C(F)(F)F)c2ccc(F)cc2)nn1", "889142-216-R-J1-PDC complex spheroid viability", "class 0"),
    ("O=c1[nH]cc(F)c(=O)[nH]1 + Cc1cccc(N(C)C(=O)C2C(O)CCN2c2nc(C)cc(C(F)(F)F)c2C#N)c1", "889142-216-R-J1-PDC complex spheroid viability", "class 1"),
    ("C=CC(=O)N1CCN(c2nc(=O)n(-c3c(C)ccnc3C(C)C)c3nc(-c4c(O)cccc4F)c(F)cc23)C(C)C1 (stereo unspecified) + Nc1ccc(C#CCN(C(=O)Cc2ncc(C(F)(F)F)cc2C(F)(F)F)c2ccc(F)cc2)nn1", "889142-216-R-J1-PDC complex spheroid viability", "class 2"),
]

---

# System: 889142-216-R-J1-PDC complex spheroid viability
# test name: Anticancer human tumor 889142-216-R-J1-PDC cell line growth inhibition [POLQ];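 further: spheroids exposed to compounds for seven days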
# run conditions: curve of first compound; second compound 0.0316 µM
Threshold-based label: IC50 under 0.8 µM gives y, IC50 not under 0.8 µM gives n.

# compound, answer label
records = [
    ("O=C(Nc1ccc(O)c(NS(=O)(=O)c2ccc(F)cc2)c1)c1ccc(-c2ccccc2)cc1 + Nc1ccc(C#CCN(C(=O)Cc2ncc(C(F)(F)F)cc2C(F)(F)F)c2ccc(F)cc2)nn1", "n"),
    ("CCc1cc2c(N3CCc4c(cc(Cn5ccnc5)cc4-c4cn(C)nc4C(F)(F)F)C3=O)ccnc2c(OC)n1 + Cc1cccc(N(C)C(=O)C2C(O)CCN2c2nc(C)cc(C(F)(F)F)c2C#N)c1", "n"),
    ("CC(=O)O[C@H]1C(=O)[C@@]2(C)[C@H]([C@H](OC(=O)c3ccccc3)[C@]3(O)C[C@H](OC(=O)[C@H](O)[C@@H](NC(=O)c4ccccc4)c4ccccc4)C(C)=C1C3(C)C)[C@]1(OC(C)=O)CO[C@@H]1C[C@@H]2O + Cc1cccc(N(C)C(=O)C2C(O)CCN2c2nc(C)cc(C(F)(F)F)c2C#N)c1", "n"),
    ("CC(C)n1c(=O)n(C)c2cnc3cc(F)c(-c4ccc(OCCCN5CCCCC5)nc4)cc3c21 + Nc1ccc(C#CCN(C(=O)Cc2ncc(C(F)(F)F)cc2C(F)(F)F)c2ccc(F)cc2)nn1", "n"),
    ("CC1COCCN1c1cc(C2(S(C)(=N)=O)CC2)nc(-c2ccnc3[nH]ccc23)n1 (stereo not given) + Nc1ccc(C#CCN(C(=O)Cc2ncc(C(F)(F)F)cc2C(F)(F)F)c2ccc(F)cc2)nn1", "n"),
    ("Nc1ccn(C2OC(CO)C(O)C2(F)F)c(=O)n1 (stereo not given) + Nc1ccc(C#CCN(C(=O)Cc2ncc(C(F)(F)F)cc2C(F)(F)F)c2ccc(F)cc2)nn1", "y"),
    ("O=c1[nH]cc(F)c(=O)[nH]1 + Cc1cccc(N(C)C(=O)C2C(O)CCN2c2nc(C)cc(C(F)(F)F)c2C#N)c1", "n"),
    ("CCc1cc2c(N3CCc4c(cc(Cn5ccnc5)cc4-c4cn(C)nc4C(F)(F)F)C3=O)cc(C)nc2c(OC)n1 + Nc1ccc(C#CCN(C(=O)Cc2ncc(C(F)(F)F)cc2C(F)(F)F)c2ccc(F)cc2)nn1", "n"),
    ("C#Cc1c(F)ccc2cc(O)cc(-c3ncc4c(N5CC6CCC(C5)N6)nc(OCC56CCCN5CC(F)C6)nc4c3F)c12 (stereo not given) + Nc1ccc(C#CCN(C(=O)Cc2ncc(C(F)(F)F)cc2C(F)(F)F)c2ccc(F)cc2)nn1", "n"),
    ("COc1cccc(OCCCN)c1-c1cc(Nc2cnc(C#N)cn2)n[nH]1 + COC1C(OC(N)=O)C(O)C(Oc2ccc3c(O)c(NC(=O)c4ccc(O)c(CC=C(C)C)c4)c(=O)oc3c2C)OC1(C)C", "y"),
    ("COc1ccc([C@@H](O)c2cc(-c3ncnc4cc(N5CCOCC5)ccc34)c(F)cc2Cl)nn1 + Nc1ccc(C#CCN(C(=O)Cc2ncc(C(F)(F)F)cc2C(F)(F)F)c2ccc(F)cc2)nn1", "n"),
    ("CC(C)n1c(=O)n(C)c2cnc3cc(F)c(-c4ccc(OCCCN5CCCCC5)nc4)cc3c21 + COC1C(OC(N)=O)C(O)C(Oc2ccc3c(O)c(NC(=O)c4ccc(O)c(CC=C(C)C)c4)c(=O)oc3c2C)OC1(C)C", "n"),
    ("CCCS(=O)(=O)Nc1ccc(F)c(C(=O)c2c[nH]c3ncc(-c4ccc(Cl)cc4)cc23)c1F + Nc1ccc(C#CCN(C(=O)Cc2ncc(C(F)(F)F)cc2C(F)(F)F)c2ccc(F)cc2)nn1", "n"),
    ("C=CCn1c(=O)c2cnc(Nc3ccc(N4CCN(C)CC4)cc3)nc2n1-c1cccc(C(C)(C)O)n1 + COC1C(OC(N)=O)C(O)C(Oc2ccc3c(O)c(NC(=O)c4ccc(O)c(CC=C(C)C)c4)c(=O)oc3c2C)OC1(C)C", "n"),
    ("CC1COCCN1c1cc(-c2ccnn2C)c2ccnc(-c3ccn[nH]3)c2n1 (stereo not given) + Nc1ccc(C#CCN(C(=O)Cc2ncc(C(F)(F)F)cc2C(F)(F)F)c2ccc(F)cc2)nn1", "y"),
    ("COc1cccc(OCCCN)c1-c1cc(Nc2cnc(C#N)cn2)n[nH]1 + Cc1cccc(N(C)C(=O)C2C(O)CCN2c2nc(C)cc(C(F)(F)F)c2C#N)c1", "y"),
    ("CC1COCCN1c1cc(-c2ccnn2C)c2ccnc(-c3ccn[nH]3)c2n1 (stereo not given) + Cc1cccc(N(C)C(=O)C2C(O)CCN2c2nc(C)cc(C(F)(F)F)c2C#N)c1", "y"),
    ("Nc1ccn(C2OC(CO)C(O)C2(F)F)c(=O)n1 (stereo not given) + COC1C(OC(N)=O)C(O)C(Oc2ccc3c(O)c(NC(=O)c4ccc(O)c(CC=C(C)C)c4)c(=O)oc3c2C)OC1(C)C", "n"),
]
